Collected Ki for the protein given by its sequence across several studies; compounds listed below.
Target chain: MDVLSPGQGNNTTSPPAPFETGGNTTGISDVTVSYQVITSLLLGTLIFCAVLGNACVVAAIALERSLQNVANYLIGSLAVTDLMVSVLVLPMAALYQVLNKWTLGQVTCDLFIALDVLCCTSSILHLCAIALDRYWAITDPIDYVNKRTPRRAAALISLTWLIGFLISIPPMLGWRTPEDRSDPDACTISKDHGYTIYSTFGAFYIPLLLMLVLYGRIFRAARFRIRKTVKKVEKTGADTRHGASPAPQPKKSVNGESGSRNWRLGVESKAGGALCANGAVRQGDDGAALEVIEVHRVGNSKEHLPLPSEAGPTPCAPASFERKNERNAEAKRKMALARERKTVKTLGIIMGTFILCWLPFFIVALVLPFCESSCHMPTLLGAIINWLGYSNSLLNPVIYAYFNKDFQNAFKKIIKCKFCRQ
assay-endpoint: Ki (nM)

- COc1ccc(OCCNCC2COC(c3ccccc3)(c3ccccc3)O2)cc1OC (racemic): 97.7
- O=S1(=O)c2cccc3cccc(c23)N1CCCCCCN1CCN(c2cccc(Cl)c2Cl)CC1: 149
- Cc1cccc(Cl)c1Oc1cccc(F)c1OC1CNC1: 16
- O=C(CCCN1CCC(c2noc3cc(F)ccc23)CC1)c1cc2c3c(c1)CCN3C(=O)CC2: 8.6
- COc1ccccc1N1CCN(CCCn2cc(CCCN3CCc4cc(O)c(O)cc4C(c4ccccc4C)C3)nn2)CC1 (racemic): 85
- CC(=O)NC1CCc2ccc(CCN3CCN(c4nsc5ccccc45)CC3)cc21 (configuration not stated): 7.5
- Fc1ccccc1Oc1ncccc1C1CCNCC1: 13
